quantity: Ki (µM)
// units = µM; emit number, no label

Task: # query: Ki | item "CCN(CC(=O)NN=Cc1ccc(OCCCN2C(=O)c3ccccc3C2=O)cc1)Cc1ccccc1" | system: BChE (Homo sapiens)
Output: 3.65
